Numbers sourced from patent US4252788A.

test: Ability to inhibit decalcification of the hard tissue (dissolved calcium from human dentin powder in acid solution); conditions: 3 hrs decalcification; Mo 1%, pH 3
Measured Inhibition rate of decalcification accompanies every entry in the list below.
measured-metric: Inhibition rate of decalcification (%)

molecule: O.O=P(O)(O)O.[O]=[Mo](=[O])=[O].[O]=[Mo](=[O])=[O].[O]=[Mo](=[O])=[O].[O]=[Mo](=[O])=[O].[O]=[Mo](=[O])=[O].[O]=[Mo](=[O])=[O].[O]=[Mo](=[O])=[O].[O]=[Mo](=[O])=[O].[O]=[Mo](=[O])=[O].[O]=[Mo](=[O])=[O].[O]=[Mo](=[O])=[O].[O]=[Mo](=[O])=[O] [P2 O5 . 24MoO3, phosphomolybdic acid]
unit-info: %
test-result: 54.24

molecule: O=P([O-])([O-])[O-].[Na+].[Na+].[Na+].[O]=[Mo](=[O])=[O].[O]=[Mo](=[O])=[O].[O]=[Mo](=[O])=[O].[O]=[Mo](=[O])=[O].[O]=[Mo](=[O])=[O].[O]=[Mo](=[O])=[O].[O]=[Mo](=[O])=[O].[O]=[Mo](=[O])=[O].[O]=[Mo](=[O])=[O].[O]=[Mo](=[O])=[O].[O]=[Mo](=[O])=[O].[O]=[Mo](=[O])=[O] [Na3 PO4 . 12MoO3, sodium phosphorus molybdate]
unit-info: %
test-result: 41.11

molecule: [NH4+].[NH4+].[O]=[Mo-2](=[O])([F])([F])([F])[F] [(NH4)2 MoO2 F4, ammonium dioxotetrafluoromolybdate]
unit-info: %
test-result: 36.47

molecule: [Na+].[Na+].[O]=[Mo-2](=[O])([F])([F])([F])[F] [Na2 MoO2 F4, sodium dioxotetrafluoromolybdate]
unit-info: %
test-result: 66.67
